- tested system: hTLR9 (Homo sapiens, UniProt Q9NR96)
- Sequence (Q9NR96 26-1032): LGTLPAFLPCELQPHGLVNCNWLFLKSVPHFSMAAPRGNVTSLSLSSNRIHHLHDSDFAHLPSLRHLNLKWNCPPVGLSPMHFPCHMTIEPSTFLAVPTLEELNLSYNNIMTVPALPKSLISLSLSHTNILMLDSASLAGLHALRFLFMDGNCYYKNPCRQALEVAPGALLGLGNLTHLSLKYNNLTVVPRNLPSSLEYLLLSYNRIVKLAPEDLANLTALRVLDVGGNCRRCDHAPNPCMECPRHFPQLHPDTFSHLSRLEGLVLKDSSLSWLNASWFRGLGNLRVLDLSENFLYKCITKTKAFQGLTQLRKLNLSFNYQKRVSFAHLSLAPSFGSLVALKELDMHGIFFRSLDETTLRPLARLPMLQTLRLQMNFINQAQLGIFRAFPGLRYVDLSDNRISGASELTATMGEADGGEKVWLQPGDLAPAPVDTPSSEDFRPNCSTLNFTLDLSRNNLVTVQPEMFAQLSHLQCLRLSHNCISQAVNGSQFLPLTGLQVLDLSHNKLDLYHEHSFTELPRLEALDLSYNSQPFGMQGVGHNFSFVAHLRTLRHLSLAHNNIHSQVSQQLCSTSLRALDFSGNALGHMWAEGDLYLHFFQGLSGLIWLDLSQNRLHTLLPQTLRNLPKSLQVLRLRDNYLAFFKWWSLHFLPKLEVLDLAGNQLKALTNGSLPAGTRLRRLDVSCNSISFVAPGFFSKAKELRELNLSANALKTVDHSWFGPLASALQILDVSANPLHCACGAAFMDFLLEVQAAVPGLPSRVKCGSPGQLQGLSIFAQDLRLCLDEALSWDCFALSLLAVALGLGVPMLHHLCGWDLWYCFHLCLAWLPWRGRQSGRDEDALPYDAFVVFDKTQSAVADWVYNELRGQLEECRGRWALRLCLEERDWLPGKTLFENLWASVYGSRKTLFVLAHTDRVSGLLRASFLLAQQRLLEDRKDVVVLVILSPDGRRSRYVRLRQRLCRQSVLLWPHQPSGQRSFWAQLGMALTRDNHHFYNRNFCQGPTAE
- procedure details: HEK293-Blue-hTLR-9 cells assay (SEAP reporter, ODN2006 stimulation)
- Format: cell-based
- Parameters: host or cells: HEK293 (HEK-Blue hTLR9)
- condition: HEK293-Blue-hTLR9 cells, ODN2006, 20 hrs; read-out: HEK/hTLR9 IC50
value type: IC50 (nM)

Example results:
{"columns": ["compound", "value measured"],
 "data": [
  ["C[C@@H]1CN(c2ccc(C#N)c3ncccc23)C[C@H](CN2CCN(c3ccc([C@H]4CNCCO4)cc3)CC2)O1 [Example 20]", 96],
  ["Cc1cc(N2C[C@@H](N)[C@](C)(O)C2)nc(N2CCN(C[C@H]3CN(c4ccc(C#N)c5nccnc45)C[C@@H](C)O3)CC2)n1 [Example 125]", 83]
]}

1: Cc1cc(N2CCN(C[C@H]3CN(c4ccc(C#N)c5ncccc45)C[C@@H](C)O3)CC2)nc(N2CC[C@@H](F)[C@@H](N)C2)n1 [Example 83]
2: C[C@@H]1CN(c2ccc(C#N)n3ncc(F)c23)C[C@H](CN2CCN(c3ccc(N4CC[C@@H](N)[C@H](F)C4)nc3)CC2)O1 [Example 175]
3: C[C@@H]1CN(c2ccc(C#N)c3ncccc23)C[C@H](CN2CCN(c3cccc(N[C@H]4CNC[C@@H]4F)n3)CC2)O1 [Example 35]
4: CO[C@@H]1CN(c2nc(C)cc(N3CCN(C[C@H]4CN(c5ccc(C#N)c6ncccc56)C[C@@H](C)O4)CC3)n2)C[C@@H]1N [Example 72]
Ask: Sort (4 compounds) by IC50: min first. The reply should contain the labels ordered as requested.
Result: 4, 2, 1, 3

###

The following molecules are listed with their measured hERG IC20/TLR8 IC50 values.
- tested system: hERG channel (Homo sapiens, UniProt Q12809)
- Construct: expressed in transfected cells; host or cells: CHO (Chinese hamster ovary)
- Sequence (Q12809 whole entry): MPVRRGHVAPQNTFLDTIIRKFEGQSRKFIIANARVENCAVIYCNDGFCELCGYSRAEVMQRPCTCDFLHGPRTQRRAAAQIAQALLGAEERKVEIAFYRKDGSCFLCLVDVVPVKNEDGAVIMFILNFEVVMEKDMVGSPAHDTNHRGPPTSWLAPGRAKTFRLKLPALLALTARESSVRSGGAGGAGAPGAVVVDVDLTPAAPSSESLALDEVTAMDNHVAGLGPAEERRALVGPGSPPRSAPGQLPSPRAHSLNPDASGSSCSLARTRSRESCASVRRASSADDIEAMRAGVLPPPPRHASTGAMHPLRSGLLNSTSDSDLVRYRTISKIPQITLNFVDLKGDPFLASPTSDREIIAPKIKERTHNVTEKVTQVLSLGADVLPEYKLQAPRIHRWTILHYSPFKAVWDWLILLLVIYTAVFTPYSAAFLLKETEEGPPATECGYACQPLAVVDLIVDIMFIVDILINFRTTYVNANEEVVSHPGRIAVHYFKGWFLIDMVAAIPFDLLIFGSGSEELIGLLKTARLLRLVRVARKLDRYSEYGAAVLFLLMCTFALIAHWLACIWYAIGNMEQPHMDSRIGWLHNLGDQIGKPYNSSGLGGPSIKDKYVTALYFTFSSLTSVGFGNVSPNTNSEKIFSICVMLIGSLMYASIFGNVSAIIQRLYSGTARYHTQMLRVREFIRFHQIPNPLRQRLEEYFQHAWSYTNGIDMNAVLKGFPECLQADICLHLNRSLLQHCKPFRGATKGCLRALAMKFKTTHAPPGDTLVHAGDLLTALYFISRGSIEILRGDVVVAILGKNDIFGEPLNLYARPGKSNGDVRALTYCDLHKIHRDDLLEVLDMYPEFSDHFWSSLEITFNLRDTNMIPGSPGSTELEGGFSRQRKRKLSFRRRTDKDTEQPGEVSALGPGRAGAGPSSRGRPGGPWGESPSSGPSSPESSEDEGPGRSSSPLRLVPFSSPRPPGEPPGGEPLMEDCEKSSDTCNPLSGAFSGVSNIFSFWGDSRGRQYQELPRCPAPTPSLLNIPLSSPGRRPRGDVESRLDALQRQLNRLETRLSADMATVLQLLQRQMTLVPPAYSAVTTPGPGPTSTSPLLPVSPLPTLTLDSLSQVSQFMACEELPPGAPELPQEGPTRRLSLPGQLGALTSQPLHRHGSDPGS
- procedure details: hERG channel inhibition assay (patch-clamp, CHOhERG cells)
- Assay type: cell-based
- condition: safety ratio

Example results:
{"columns": ["molecule", "value measured"],
 "data": [
  ["CO[C@@H]1CN(c2nccc(N3CCN(C[C@H]4CN(c5ccc(C#N)c6nccnc56)C[C@@H](C)O4)CC3)n2)C[C@H]1N [Example 98]", ">10000"],
  ["C[C@@H]1CN(c2ccc(C#N)n3ncc(F)c23)C[C@H](CN2CCN(c3ccc(N4CC(C)(N)C4)nc3)CC2)O1 [Example 154]", ">200"],
  ["C[C@@H]1CN(c2ccc(C#N)c3ncccc23)C[C@H](CN2CCN(c3cncc(N4CCNCC4)c3)CC2)O1 [Example 7]", ">1111"],
  ["CO[C@H]1CN(c2cc(C)nc(N3CCN(C[C@H]4CN(c5ccc(C#N)c6nccnc56)C[C@@H](C)O4)CC3)n2)C[C@@H]1N [Example 104]", ">10000"],
  ["C[C@@H]1CN(c2ccc(C#N)c3ncccc23)C[C@H](CN2CCN(c3ccnc(N4CCNCC4)n3)CC2)O1 [Example 15]", ">3333"]
]}

Ask: Given the molecule [2H]c1nc2c(C#N)ccc(N3C[C@H](CN4CCN(c5nc(C)cc(N6CC(N)C6)n5)CC4)O[C@H](C)C3)c2nc1[2H] [Example 124] , what is its reported hERG IC20/TLR8 IC50?
Result: >10000

Ask: Now the molecule C[C@@H]1CN(c2ccc(C#N)c3ncccc23)C[C@H](CN2CCN(c3cccc(NC4CNC4)n3)CC2)O1 [Example 38]
Result: 500

Ask: Now the molecule C[C@@H]1CN(c2ccc(C#N)n3ncc(F)c23)C[C@H](CN2CCN(c3ccc(N[C@H]4CNC[C@H]4F)nc3)CC2)O1 [Example 167]
Result: >294

Ask: Now the molecule Cc1cc(N2CCNCC2)nc(N2CCN(C[C@H]3CN(c4ccc(C#N)c5nccnc45)C[C@@H](C)O3)CC2)n1 [Example 114]
Result: >10000

Ask: Now the molecule COc1ccc(N2CCN(C[C@H]3CN(c4ccc(C#N)c5ncccc45)C[C@@H](C)O3)CC2)cc1 [Example R1, reference compound]
Result: 6.2

Ask: Now the molecule CO[C@@H]1CN(c2ccc(N3CCN(C[C@H]4CN(c5ccc(C#N)n6ncc(F)c56)C[C@@H](C)O4)CC3)cn2)C[C@H]1N [Example 166]
Result: 258

Ask: Now the molecule [2H]c1ccc2c(N3C[C@H](CN4CCN(c5ccc(N6C[C@@H](N)[C@H](OC)C6)nc5)CC4)O[C@H](C)C3)ccc(C#N)c2n1 [Example 143]
Result: >1250
